- METHOD_NOTES: in vitro
- CONDITION_CONTEXT: pig (PS); human (UKF-NB-4, HBCA)
MEASURE: CC50

Input: For the compound `CCOC(=O)c1c(CSc2ccccc2)n(C)c2cc(Br)c(O)c(CN(C)C)c12.Cl.O` , what CC50 is on record?
Output: 24.8 to 47 µM

###

- METHOD_NOTES: in vitro
- CONDITION_CONTEXT: pig
MEASURE: CC50 (µM)
Kindly answer with a numeric value in µM, unit omitted.

Input: Entry `CCOC(=O)c1c(CSc2ccccc2)n(C)c2cc(Br)c(O)c(CN(C)C)c12.Cl.O` has what CC50?
Output: 46.8

###

- METHOD_NOTES: in vitro
- CONDITION_CONTEXT: African green monkey
MEASURE: CC50 (µM)
Write down the numeric answer in µM and omit the unit.

Input: Quick one: CC50 of `CCOC(=O)c1c(CSc2ccccc2)n(C)c2cc(Br)c(O)c(CN(C)C)c12.Cl.O` ?
Output: 89.7

From: paper PMC5923478
